Just for reference, patent EP0241395A2 is where these values come from.

- System: groupe de huit goûteurs expérimentés
- assay_remarks: Sweetening power judged by a panel of eight experienced tasters against a sucrose reference solution
- Type: in vivo
- test_parameters: by comparison with a 2 % sucrose solution; weight basis; approximate
- Text: Le pouvoir édulcorant des composés préparés dans les exemples suivants a été évalué par un groupe de huit goûteurs expérimentés. Pour cela, les composés, en solution aqueuse à des concentrations variables, sont comparés, sur le plan gustatif, à une solution témoin de saccharose à 2 % et dans certains cas à 5 % et 10 %, c'est-à-dire à des concentrations correspondant à celles utilisées lors d'un usage courant. […]
Reported pouvoir édulcorant, sur une base pondérale is given for each of the following molecules.
attribute_measured: pouvoir édulcorant, sur une base pondérale

* Cc1cc(NC(=NC2CCCCCCC2)NCC(=O)O)ccc1C#N | ~80 000 fois celui du saccharose
* N#Cc1ccc(N=C(NCC(=O)O)N2CCCCC2)cc1 | ~200 fois celui du saccharose
* C[C@H](NC(=Nc1ccc([N+](=O)[O-])cc1)NCC(=O)O)c1ccccc1 | ~7 000 fois celui du saccharose
* COC(=O)c1ccc(N=C(NCC(=O)O)NCC2CCCCC2)cc1 | ~1 300 fois celui du saccharose
* CCNC(=Nc1ccc(C#N)cc1)NCC(=O)O | ~350 fois celui du saccharose
* COC(=O)c1ccc(N=C(NCC(=O)O)N[C@@H](C)c2ccccc2)cc1 | ~700 fois celui du saccharose
* C[C@H](NC(=Nc1cccc(C(F)(F)F)c1)NCC(=O)O)c1ccccc1 | ~7 500 fois celui du saccharose
* C[C@H](NC(=Nc1cc(F)cc(F)c1)NCC(=O)O)c1ccccc1 | ~15 000 fois celui du saccharose

====

- Tested on: groupe de huit goûteurs expérimentés
- assay_remarks: Sweetening power judged by a panel of eight experienced tasters against a sucrose reference solution
- Format: in vivo
- test_parameters: by comparison with a 2 % sucrose solution; weight basis; approximate
attribute_measured: pouvoir édulcorant, sur une base pondérale

• C[C@H](NC(=Nc1ccccc1)NCC(=O)O)c1ccccc1 = ~5 000 fois celui du saccharose
• N#Cc1ccc(N=C(NCC(=O)O)Nc2ccccc2)cc1 = ~4 000 fois celui du saccharose
• Cc1cccc(NC(=Nc2ccc(C#N)cc2)NCC(=O)O)c1 = ~9 000 fois celui du saccharose
• CCCCCCN=C(NCC(=O)O)Nc1ccc(C#N)cc1 = ~6 000 fois celui du saccharose
• N#Cc1ccc(N=C(NCC(=O)O)NCC23CC4CC(CC(C4)C2)C3)cc1 = ~23 000 fois celui du saccharose
• N#Cc1ccc(N=C(NCC(=O)O)NC2CCCCC2)cc1 = ~12 000 fois celui du saccharose
• C[C@H](N=C(NCC(=O)O)Nc1ccc(F)cc1)c1ccccc1 = ~4 000 fois celui du saccharose
• Cc1cccc(N=C(NCC(=O)O)N[C@@H](C)c2ccccc2)c1 = ~12 000 fois celui du saccharose
• Cc1cc(C)cc(N=C(NCC(=O)O)N(C)Cc2ccccc2)c1 = ~5 000 fois celui du saccharose
• O=C(O)CNC(=Nc1ccccc1)NCC1CCCCC1 = ~3 300 fois celui du saccharose
• O=C(O)CN=C(NCC1CCCCC1)Nc1ccc(C(=O)O)cc1 = ~50 fois celui du saccharose
• O=C(O)CNC(=Nc1ccc(Cl)cc1)NCC1CCCCC1 = ~3 500 fois celui du saccharose
• C[C@H](NC(=Nc1cc(Cl)c(Cl)c(Cl)c1)NCC(=O)O)c1ccccc1 = ~35 000 fois celui du saccharose
• C[C@H](NC(=Nc1cc(Cl)cc(Cl)c1)NCC(=O)O)c1ccccc1 = ~120 000 fois celui du saccharose
• N#Cc1ccc(N=C(NCC(=O)O)NC2CCCCCCC2)cc1Cl = ~100 000 fois celui du saccharose
• O=C(O)CNC(=Nc1ccccc1)NC1CCCCC1 = ~100 fois celui du saccharose
• CC(C)N(C)C(=Nc1ccc(C#N)cc1)NCC(=O)O = ~80 fois celui du saccharose
• C[C@H](NC(=Nc1cccc([N+](=O)[O-])c1)NCC(=O)O)c1ccccc1 = ~6 000 fois celui du saccharose
• O=C(O)CNC(=Nc1ccc([N+](=O)[O-])cc1)NCC1CCCCC1 = ~8 000 fois celui du saccharose
• O=C(O)CNC(=C[N+](=O)[O-])Nc1cc(Cl)cc(Cl)c1 = ~400 fois celui du saccharose
• C[C@@H](NC(=Nc1ccc(C#N)cc1)NC1CCCCC1)C(=O)O = ~100 fois celui du saccharose
• C[C@@H](NC(=Nc1ccc(C#N)cc1)NCC(=O)O)c1ccccc1 = ~9 000 fois celui du saccharose
• N#Cc1ccc(NC(=NC2CCCCCCC2)NCC(=O)O)cc1 = ~170 000 fois celui du saccharose
• C[C@H](NC(=Nc1cccc(C#N)c1)NCC(=O)O)c1ccccc1 = ~5 500 fois celui du saccharose
• CN(Cc1ccccc1)C(=Nc1cc(Cl)cc(Cl)c1)NCC(=O)O = ~20 000 fois celui du saccharose
• Cc1ccc(N=C(NCC(=O)O)N[C@@H](C)c2ccccc2)cc1 = ~800 fois celui du saccharose
• C[C@H](NC(=Nc1cccc(Br)c1)NCC(=O)O)c1ccccc1 = ~25 000 fois celui du saccharose
• C[C@H](NC(=Nc1ccc(C(F)(F)F)cc1)NCC(=O)O)c1ccccc1 = ~500 fois celui du saccharose
• CN(C(=Nc1ccc(C#N)cc1)NCC(=O)O)c1ccccc1 = ~18 000 fois celui du saccharose
• C[C@@H](NC(=Nc1ccc(C#N)cc1)NC1CCCCCCC1)C(=O)O = ~900 fois celui du saccharose
• COc1ccc(N=C(NCC(=O)O)N[C@@H](C)c2ccccc2)cc1 = ~2100 times sucrose
• CN(Cc1ccccc1)C(=Nc1ccc(C#N)cc1)NCC(=O)O = ~3 000 fois celui du saccharose
• O=C(O)CNC(=Nc1cc(Cl)cc(Cl)c1)NCC1CCCCC1 = ~35 000 fois celui du saccharose
• CSc1cccc(N=C(NCC(=O)O)N[C@@H](C)c2ccccc2)c1 = ~5 500 fois celui du saccharose
• N#Cc1ccc(N=C(NCC(=O)O)NCc2ccccc2)cc1 = ~30 000 fois celui du saccharose
• C[C@H](NC(=Nc1cc(Cl)cc(Cl)c1)NCC(=O)O)C1CCCCC1 = ~70 000 fois celui du saccharose
• Cc1ccc(NC(=Nc2ccc(C#N)cc2)NCC(=O)O)cc1 = ~7 000 fois celui du saccharose
• C[C@H](NC(=Nc1ccc(Cl)cc1)NCC(=O)O)c1ccccc1 = ~3 000 fois celui du saccharose
• CC(=O)c1ccc(N=C(NCC(=O)O)N[C@@H](C)c2ccccc2)cc1 = ~800 fois celui du saccharose

====

- System: groupe de huit goûteurs expérimentés
- assay_remarks: Sweetening power judged by a panel of eight experienced tasters against a sucrose reference solution
- Assay type: in vivo
- test_parameters: Table II; weight basis, relative to a 2 % sucrose solution
Response key: Satisfied means Pouvoir édulcorant >= 3000; Not satisfied means Pouvoir édulcorant < 3000.

- N#Cc1ccc(N=C(NCC(=O)O)NCc2ccccc2)cc1: Satisfied
- N#Cc1ccc(N=C(NCC(=O)O)Nc2ccc3c(c2)OCO3)cc1: Satisfied
- Cc1cccc(NC(=Nc2ccc(C#N)cc2)NCC(=O)O)c1: Satisfied
- N#Cc1ccc(N=C(NCC(=O)O)NN2CCOCC2)cc1: Not satisfied
- COc1cc(NC(=N[C@@H](C)c2ccccc2)NCC(=O)O)cc(C(F)(F)F)c1: Satisfied
- CC(=O)c1ccc(N=C(NCC(=O)O)N[C@@H](C)c2ccccc2)cc1: Not satisfied
- O=C(O)CNC(=Nc1cc(Cl)cc(Cl)c1)NC1CCCCCC1: Satisfied

====

Reported pouvoir édulcorant, sur une base pondérale is given for each of the following compounds.
- Tested on: groupe de huit goûteurs expérimentés
- assay_remarks: Sweetening power judged by a panel of eight experienced tasters against a sucrose reference solution
- Type: in vivo
- test_parameters: by comparison with a 2 % sucrose solution; weight basis; approximate
attribute_measured: pouvoir édulcorant, sur une base pondérale

- N#Cc1ccc(N=C(NCC(=O)O)NC2CCc3ccccc32)cc1 (centres unmarked) [Exemple 70]: ~5 000 fois celui du saccharose
- N#Cc1ccc(N=C(NCC(=O)O)NCC2CCCCC2)cc1 [Exemple 59]: ~35 000 fois celui du saccharose
- COc1cccc(N=C(NCC(=O)O)N[C@@H](C)c2ccccc2)c1 [Exemple 9]: ~4 500 fois celui du saccharose
- CCN(Cc1ccccc1)C(=Nc1ccc(C#N)cc1)NCC(=O)O [Exemple 34]: ~3 000 fois celui du saccharose
- N#Cc1ccc(N=C(NCC(=O)O)NN2CCOCC2)cc1 [Exemple 77]: ~950 fois celui du saccharose
- CSc1ccc(N=C(NCC(=O)O)N[C@@H](C)c2ccccc2)cc1 [Exemple 21]: ~1200 times sucrose
- O=C(O)CNC(=NS(=O)(=O)c1ccccc1)Nc1cccc(Cl)c1 [Exemple 79]: ~17 000 fois celui du saccharose
- C[C@H](NC(=Nc1ccc(O)cc1)NCC(=O)O)c1ccccc1 [Exemple 20]: ~400 fois celui du saccharose
- N#Cc1ccc(N=C(NCCc2ccccc2)NCC(=O)O)cc1 [Exemple 53]: ~8 500 fois celui du saccharose
- C[C@H](NC(=Nc1ccc(C#N)cc1)NCC(=O)O)c1ccccc1 [Exemple 14]: ~28 000 fois celui du saccharose
- Cc1cc(C)cc(N=C(NCC(=O)O)N[C@@H](C)c2ccccc2)c1 [Exemple 25]: ~30 000 fois celui du saccharose
- CC1(C)SC(C)(C)C1NC(=Nc1ccc(C#N)cc1)NCC(=O)O [Exemple 78]: ~700 fois celui du saccharose
- Cc1ccccc1N=C(NCC(=O)O)Nc1ccc(C#N)cc1 [Exemple 64]: ~5 000 fois celui du saccharose
- CC1(NC(=Nc2ccc(C#N)cc2)NCC(=O)O)CCCCC1 [Exemple 67]: ~100 fois celui du saccharose
- CC(C)(C)CC(C)(C)NC(=Nc1ccc(C#N)cc1)NCC(=O)O [Exemple 39]: ~1 200 fois celui du saccharose
- C[C@H](NC(=Nc1ccc(Cl)c(Cl)c1)NCC(=O)O)c1ccccc1 [Exemple 23]: ~17 000 fois celui du saccharose
- N#CN=C(NCC(=O)O)Nc1cccc(Cl)c1 [Exemple 73]: ~80 fois celui du saccharose
- N#Cc1ccc(N=C(NCC(=O)O)Nc2ccc3c(c2)OCO3)cc1 [Exemple 75]: ~5 000 fois celui du saccharose
- CC(C)CCNC(=Nc1ccc(C#N)cc1)NCC(=O)O [Exemple 37]: ~200 fois celui du saccharose
- N#Cc1ccc(N=C(NCC(=O)O)NC2CCCCCC2)cc1 [Exemple 45]: ~60 000 fois celui du saccharose
